# system.name: 5-hydroxytryptamine receptor 2A (Homo sapiens, UniProt P28223); note: assay procedure not described here
# Sequence (P28223 whole entry): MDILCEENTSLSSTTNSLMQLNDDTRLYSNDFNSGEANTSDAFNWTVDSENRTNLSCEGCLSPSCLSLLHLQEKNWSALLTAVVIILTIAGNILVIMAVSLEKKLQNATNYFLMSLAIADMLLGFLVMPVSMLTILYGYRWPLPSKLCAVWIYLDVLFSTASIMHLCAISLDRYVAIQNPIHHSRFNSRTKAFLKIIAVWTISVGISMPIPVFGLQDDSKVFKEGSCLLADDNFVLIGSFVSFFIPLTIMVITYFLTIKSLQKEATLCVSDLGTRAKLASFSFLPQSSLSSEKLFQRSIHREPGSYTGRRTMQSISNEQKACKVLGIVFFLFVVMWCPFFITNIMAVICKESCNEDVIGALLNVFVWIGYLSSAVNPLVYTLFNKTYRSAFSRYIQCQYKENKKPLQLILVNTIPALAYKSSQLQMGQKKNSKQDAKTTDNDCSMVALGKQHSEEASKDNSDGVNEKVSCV
# Assay type: functional, cell-based
Items are presented alongside their recorded AC50.

Consider the reported AC50 for these compounds:
1) Oc1c(I)cc(Cl)c2cccnc12 [CLIOQUINOL]; > 30 µM
2) CC(=O)/N=c1/sc(S(N)(=O)=O)nn1C [METHAZOLAMIDE]; > 10 µM

# AC50 measured on 5-hydroxytryptamine receptor 2A (Homo sapiens, UniProt P28223) for item CCCN(CCC)CCc1cccc2c1CC(=O)N2 [ROPINIROLE] = 12 µM

----------
# system.name: Alpha-2C adrenergic receptor (Homo sapiens); note: assay procedure not described here
# Sequence (P18825 whole entry): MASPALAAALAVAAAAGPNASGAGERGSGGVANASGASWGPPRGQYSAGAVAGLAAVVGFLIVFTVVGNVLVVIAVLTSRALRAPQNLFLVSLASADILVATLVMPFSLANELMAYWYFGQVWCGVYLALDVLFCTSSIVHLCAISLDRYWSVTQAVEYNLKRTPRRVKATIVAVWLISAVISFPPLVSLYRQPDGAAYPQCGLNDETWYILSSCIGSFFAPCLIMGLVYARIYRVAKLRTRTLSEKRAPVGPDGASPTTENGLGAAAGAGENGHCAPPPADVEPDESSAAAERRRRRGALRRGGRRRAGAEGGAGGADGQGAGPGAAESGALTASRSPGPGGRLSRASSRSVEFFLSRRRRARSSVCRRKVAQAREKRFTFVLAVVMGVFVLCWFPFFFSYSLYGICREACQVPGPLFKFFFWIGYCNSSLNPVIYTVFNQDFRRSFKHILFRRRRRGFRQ
# Assay type: functional
Recorded AC50 values for a group of compounds are listed next.

Some entries whose results are on file:
1. CCn1cc(C(=O)O)c(=O)c2cc(F)c(N3CCNCC3)nc21; > 10 µM
2. NS(=O)(=O)c1cc2c(cc1C(F)(F)F)NC(Cc1ccccc1)NS2(=O)=O (stereo not given) [BENDROFLUMETHIAZIDE]; > 10 µM
3. NCCCC(O)(P(=O)(O)O)P(=O)(O)O; > 10 µM
4. CCCN(CCC)CCc1cccc2c1CC(=O)N2; > 30 µM

Just so you know, measured AC50 for CCOC(=O)Nc1ccc2c(c1)N(C(=O)CCN1CCOCC1)c1ccccc1S2 came out at > 30 µM
